Below, each entry is listed alongside its reported % inhibition at 100 µM.
# measured-on: T1, Chymase, from human skin (human, UniProt P23946 22-247)
# T1 sequence (looked up): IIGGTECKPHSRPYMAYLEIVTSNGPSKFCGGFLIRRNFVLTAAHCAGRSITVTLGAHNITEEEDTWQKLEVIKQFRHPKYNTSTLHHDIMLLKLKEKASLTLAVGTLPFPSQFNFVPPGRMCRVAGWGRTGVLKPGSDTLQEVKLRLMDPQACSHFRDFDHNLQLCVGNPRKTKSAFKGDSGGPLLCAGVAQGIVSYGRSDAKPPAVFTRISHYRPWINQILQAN
# measurement-protocol: cell-based or functional assay
Could you give me the number in %? Just the number is fine.

XCTKSDPPICS (HELM PEPTIDE1{[Nle].C.T.K.S.D.P.P.I.C.S.[dP].P}$PEPTIDE1,PEPTIDE1,2:R3-10:R3|PEPTIDE1,PEPTIDE1,1:R1-13:R2$$$V2.0; SMILES CCCC[C@@H]1NC(=O)[C@@H]2CCCN2C(=O)[C@H]2CCCN2C(=O)[C@H](CO)NC(=O)[C@@H]2CSSC[C@H](NC1=O)C(=O)N[C@@H]([C@@H](C)O)C(=O)N[C@@H](CCCCN)C(=O)N[C@@H](CO)C(=O)N[C@@H](CC(=O)O)C(=O)N1CCC[C@H]1C(=O)N1CCC[C@H]1C(=O)N[C@@H]([C@@H](C)CC)C(=O)N2) [Example 10] ... 9.4
FCTKSDPPICS (HELM PEPTIDE1{F.C.T.K.S.D.P.P.I.C.S.[dP].E}$PEPTIDE1,PEPTIDE1,2:R3-10:R3|PEPTIDE1,PEPTIDE1,1:R1-13:R2$$$V2.0; SMILES CC[C@H](C)[C@@H]1NC(=O)[C@@H]2CCCN2C(=O)[C@@H]2CCCN2C(=O)[C@H](CC(=O)O)NC(=O)[C@H](CO)NC(=O)[C@H](CCCCN)NC(=O)[C@H]([C@@H](C)O)NC(=O)[C@@H]2CSSC[C@H](NC1=O)C(=O)N[C@@H](CO)C(=O)N1CCC[C@@H]1C(=O)N[C@@H](CCC(=O)O)C(=O)N[C@@H](Cc1ccccc1)C(=O)N2) [Example 64] ... 0
FCTXSDPPICY (HELM PEPTIDE1{F.C.T.[Nle].S.D.P.P.I.C.Y.[dP].P}$PEPTIDE1,PEPTIDE1,2:R3-10:R3|PEPTIDE1,PEPTIDE1,1:R1-13:R2$$$V2.0; SMILES CCCC[C@@H]1NC(=O)[C@H]([C@@H](C)O)NC(=O)[C@@H]2CSSC[C@H](NC(=O)[C@H]([C@@H](C)CC)NC(=O)[C@@H]3CCCN3C(=O)[C@@H]3CCCN3C(=O)[C@H](CC(=O)O)NC(=O)[C@H](CO)NC1=O)C(=O)N[C@@H](Cc1ccc(O)cc1)C(=O)N1CCC[C@@H]1C(=O)N1CCC[C@H]1C(=O)N[C@@H](Cc1ccccc1)C(=O)N2) [Example 60] ... 60
ICTKSDPPXCR (HELM PEPTIDE1{I.C.T.K.S.D.P.P.[Cha].C.R.[dP].P}$PEPTIDE1,PEPTIDE1,2:R3-10:R3|PEPTIDE1,PEPTIDE1,1:R1-13:R2$$$V2.0; SMILES CC[C@H](C)[C@@H]1NC(=O)[C@@H]2CCCN2C(=O)[C@H]2CCCN2C(=O)[C@H](CCCNC(=N)N)NC(=O)[C@@H]2CSSC[C@H](NC1=O)C(=O)N[C@@H]([C@@H](C)O)C(=O)N[C@@H](CCCCN)C(=O)N[C@@H](CO)C(=O)N[C@@H](CC(=O)O)C(=O)N1CCC[C@H]1C(=O)N1CCC[C@H]1C(=O)N[C@@H](CC1CCCCC1)C(=O)N2) [Example 20] ... 44.1
RETKSDPPIRF (HELM PEPTIDE1{R.E.T.K.S.D.P.P.I.R.F.[dP].P}$PEPTIDE1,PEPTIDE1,1:R1-13:R2$$$V2.0; SMILES CC[C@H](C)[C@@H]1NC(=O)[C@@H]2CCCN2C(=O)[C@@H]2CCCN2C(=O)[C@H](CC(=O)O)NC(=O)[C@H](CO)NC(=O)[C@H](CCCCN)NC(=O)[C@H]([C@@H](C)O)NC(=O)[C@H](CCC(=O)O)NC(=O)[C@H](CCCNC(=N)N)NC(=O)[C@@H]2CCCN2C(=O)[C@H]2CCCN2C(=O)[C@H](Cc2ccccc2)NC(=O)[C@H](CCCNC(=N)N)NC1=O) [Example 7] ... 13.4

Please list % inhibition at 100 µM recorded for the binder FCTKSDPPXCS (HELM PEPTIDE1{F.C.T.K.S.D.P.P.[Nle].C.S.[dP].P}$PEPTIDE1,PEPTIDE1,2:R3-10:R3|PEPTIDE1,PEPTIDE1,1:R1-13:R2$$$V2.0; SMILES CCCC[C@@H]1NC(=O)[C@@H]2CCCN2C(=O)[C@@H]2CCCN2C(=O)[C@H](CC(=O)O)NC(=O)[C@H](CO)NC(=O)[C@H](CCCCN)NC(=O)[C@H]([C@@H](C)O)NC(=O)[C@@H]2CSSC[C@H](NC1=O)C(=O)N[C@@H](CO)C(=O)N1CCC[C@@H]1C(=O)N1CCC[C@H]1C(=O)N[C@@H](Cc1ccccc1)C(=O)N2) [Example 53] 12.7

Return % inhibition at 100 µM (reported value) for this binder: FCTKSDPPXCS (HELM PEPTIDE1{F.C.T.K.S.D.P.P.[Nle].C.S.[dP].P}$PEPTIDE1,PEPTIDE1,2:R3-10:R3|PEPTIDE1,PEPTIDE1,1:R1-13:R2$$$V2.0; SMILES CCCC[C@@H]1NC(=O)[C@@H]2CCCN2C(=O)[C@@H]2CCCN2C(=O)[C@H](CC(=O)O)NC(=O)[C@H](CO)NC(=O)[C@H](CCCCN)NC(=O)[C@H]([C@@H](C)O)NC(=O)[C@@H]2CSSC[C@H](NC1=O)C(=O)N[C@@H](CO)C(=O)N1CCC[C@@H]1C(=O)N1CCC[C@H]1C(=O)N[C@@H](Cc1ccccc1)C(=O)N2) [Example 15] 12.7
